# GI50 per entry
- Test system: BT-549
- Assay Name: NCI tumour cell line growth inhibition, 48 h
Calls of active or inactive are those of the source. Cut-off read from the data, not from the text of the source: active = GI50 up to about 1.1 µM and inactive = higher.

A selection of reference data follows.
| Compound | GI50 |
| --- | --- |
| C=CC(C)(C)/C=C/c1ccc(O)cc1 | 36.5 µM (inactive) |
| CCOc1cc(C2SCC(=O)N2c2nc3cc4sc(N5C(=O)CSC5c5ccc(O)c(OCC)c5)nc4cc3s2)ccc1O (stereo unspecified) | 9.59 µM (inactive) |
| COc1ccc(/C=C/C(=O)OC2CC34CCNC35CC(OC5(OC)C2OC)c2ccc(OC)c(O)c24)cc1O (stereo unspecified) | > 100 µM (inactive) |
| O=C(Cn1ccnc1[N+](=O)[O-])N(CCO)CCO | > 250 µM (inactive) |

In: Quick one: GI50 of "O=C(OCCN=C1c2ccccc2CCc2ccccc21)c1ccccc1" ?
Out: > 100 µM (inactive)

In: Record request: GI50 value, item CC(C)OCC1CC(CC(=O)Nc2nncs2)C(=O)O1 (stereo unspecified)
Out: > 100 µM (inactive)

In: Requested field: GI50. Item: COc1ccc(C2C3=C(N=C4SC(C(C)=O)=C(C)N42)c2ccccc2CC3)cc1 (stereo unspecified)
Out: 81.8 µM (inactive)

In: Please report the recorded GI50 for "NS(=O)(=O)c1ccc(/N=N/c2cc3ccccc3c(C(=O)O)c2O)cc1" .
Out: 99.1 µM (inactive)

In: Give its GI50 value. Item: "N/C(=N\c1ccc(Cl)cc1)NS(=O)(=O)c1ccc(-c2ccccn2)s1"
Out: 17.3 µM (inactive)

The reported numbers originate from ChEMBL document CHEMBL1201862.
